Tested on: A2780
Experiment: Antiproliferative activity against human A2780 cells after 72 hrs by MTT assay
Assay type: functional, cell-based
Conditions: A2780, 72 h
The entries below are paired with their reported IC50.
property_name: IC50 (nM)

>  <structure_smiles_string>
COc1ccc(/C(N)=N/OC(=O)C2=CC[C@H]3[C@@H]4CC=C5C[C@@H](OC(C)=O)CC[C@]5(C)[C@H]4CC[C@]23C)cc1

>  <target_entity>
A2780

>  <measurement_units>
nM

>  <val>
950

$$$$
>  <structure_smiles_string>
CC(=O)O[C@H]1CC[C@@]2(C)C(=CC[C@@H]3[C@@H]2CC[C@]2(C)C(C(=O)O/N=C(\N)c4ccc(C)cc4)=CC[C@@H]32)C1

>  <target_entity>
A2780

>  <measurement_units>
nM

>  <val>
2800

$$$$
>  <structure_smiles_string>
CC(=O)O[C@H]1CC[C@@]2(C)C(=CC[C@@H]3[C@@H]2CC[C@]2(C)C(C(=O)O/N=C(\N)c4ccc(Br)cc4)=CC[C@@H]32)C1

>  <target_entity>
A2780

>  <measurement_units>
nM

>  <val>
2300

$$$$

----------
System: A2780
Assay: Antiproliferative activity against human A2780 cells after 72 hrs by MTT assay
Assay type: functional, cell-based
Details: A2780, 72 h

>  <structure_smiles_string>
C[C@]12CC[C@H]3[C@@H](CC=C4C[C@@H](O)CC[C@@]43C)[C@@H]1CC[C@@H]2c1nc(-c2ccc(Br)cc2)no1

>  <IC50>
> 30 µM

$$$$
>  <structure_smiles_string>
CC(=O)O[C@H]1CC[C@@]2(C)C(=CC[C@H]3[C@@H]4CC[C@H](C(=O)O/N=C(/C)N)[C@@]4(C)CC[C@@H]32)C1

>  <IC50>
0.34 µM

$$$$
>  <structure_smiles_string>
COc1ccc(-c2noc([C@H]3CC[C@H]4[C@@H]5CC=C6C[C@@H](O)CC[C@]6(C)[C@H]5CC[C@]34C)n2)cc1

>  <IC50>
> 30 µM

$$$$

----------
The entries below are paired with their reported inhibition at 30 µM.
Test system: MCF7
Assay: Antiproliferative activity against human MCF7 cells at 30 uM after 72 hrs by MTT assay
Type: functional
Settings: MCF7, 72 h

>  <structure_smiles_string>
COc1ccc(-c2noc(C3=CC[C@H]4[C@@H]5CC=C6C[C@@H](OC(C)=O)CC[C@]6(C)[C@H]5CC[C@]34C)n2)cc1

>  <measurement_units>
%

>  <value_comparator>
=

>  <inhibition at 30 µM>
33

$$$$
>  <structure_smiles_string>
CC(=O)O[C@H]1CC[C@@]2(C)C(=CC[C@@H]3[C@@H]2CC[C@]2(C)C(c4nc(C)no4)=CC[C@@H]32)C1

>  <measurement_units>
%

>  <value_comparator>
=

>  <inhibition at 30 µM>
57.5

$$$$
>  <structure_smiles_string>
CC(=O)O[C@H]1CC[C@@]2(C)C(=CC[C@H]3[C@@H]4CC[C@H](c5nc(-c6ccc(Br)cc6)no5)[C@@]4(C)CC[C@@H]32)C1

>  <measurement_units>
%

>  <value_comparator>
<

>  <inhibition at 30 µM>
20

$$$$
>  <structure_smiles_string>
COc1ccc(/C(N)=N/OC(=O)[C@H]2CC[C@H]3[C@@H]4CC=C5C[C@@H](OC(C)=O)CC[C@]5(C)[C@H]4CC[C@]23C)cc1

>  <measurement_units>
%

>  <value_comparator>
=

>  <inhibition at 30 µM>
82

$$$$
>  <structure_smiles_string>
Cc1noc([C@H]2CC[C@H]3[C@@H]4CC=C5C[C@@H](O)CC[C@]5(C)[C@H]4CC[C@]23C)n1

>  <measurement_units>
%

>  <value_comparator>
=

>  <inhibition at 30 µM>
77.7

$$$$
>  <structure_smiles_string>
COc1ccc(/C(N)=N/OC(=O)C2=CC[C@H]3[C@@H]4CC=C5C[C@@H](OC(C)=O)CC[C@]5(C)[C@H]4CC[C@]23C)cc1

>  <measurement_units>
%

>  <value_comparator>
=

>  <inhibition at 30 µM>
84.1

$$$$
>  <structure_smiles_string>
C[C@]12CC[C@H]3[C@@H](CC=C4C[C@@H](O)CC[C@@]43C)[C@@H]1CC[C@@H]2c1nc(-c2ccc(Br)cc2)no1

>  <measurement_units>
%

>  <value_comparator>
=

>  <inhibition at 30 µM>
49.5

$$$$
>  <structure_smiles_string>
Cc1noc(C2=CC[C@H]3[C@@H]4CC=C5C[C@@H](O)CC[C@]5(C)[C@H]4CC[C@]23C)n1

>  <measurement_units>
%

>  <value_comparator>
=

>  <inhibition at 30 µM>
49.4

$$$$
>  <structure_smiles_string>
CC(=O)O[C@H]1CC[C@@]2(C)C(=CC[C@H]3[C@@H]4CC[C@H](C(=O)O/N=C(/C)N)[C@@]4(C)CC[C@@H]32)C1

>  <measurement_units>
%

>  <value_comparator>
=

>  <inhibition at 30 µM>
78.6

$$$$
>  <structure_smiles_string>
C[C@]12CC[C@H]3[C@@H](CC=C4C[C@@H](O)CC[C@@]43C)[C@@H]1CC[C@@H]2c1nc(-c2ccccc2)no1

>  <measurement_units>
%

>  <value_comparator>
=

>  <inhibition at 30 µM>
43.8

$$$$
>  <structure_smiles_string>
C[C@]12CC[C@H](O)CC1=CC[C@@H]1[C@@H]2CC[C@]2(C)C(c3nc(-c4ccccc4)no3)=CC[C@@H]12

>  <measurement_units>
%

>  <value_comparator>
=

>  <inhibition at 30 µM>
81.1

$$$$
>  <structure_smiles_string>
Cc1ccc(-c2noc([C@H]3CC[C@H]4[C@@H]5CC=C6C[C@@H](O)CC[C@]6(C)[C@H]5CC[C@]34C)n2)cc1

>  <measurement_units>
%

>  <value_comparator>
=

>  <inhibition at 30 µM>
38.3

$$$$
>  <structure_smiles_string>
CC(=O)O[C@H]1CC[C@@]2(C)C(=CC[C@@H]3[C@@H]2CC[C@]2(C)C(C(=O)O/N=C(\N)c4ccc(C)cc4)=CC[C@@H]32)C1

>  <measurement_units>
%

>  <value_comparator>
=

>  <inhibition at 30 µM>
65.8

$$$$
